# experimental protocol: qHTS assay to identify small molecule antagonists of the thyroid receptor (TR) signaling pathway - cell viability counter screen (AID 743064); note: nearly all actives have a fitted effect of over 50% in size
# assay setup: GH3.TRE-Luc viability, CellTiter-Fluor, 24 h; series mostly up to 70.3 µM
Results filed as inconclusive are left out. The source made the active and inactive calls. Calls come from the whole dose curve; as a rule, active = well fitted cell-killing curve with a large enough effect in the repeat runs; inconclusive = weak or mixed curves, or effect the other way; inactive = no such curve, though single readings can be large or run the other way.
Hello, when you answer, please use one of the following outcomes: yes = active, no = inactive

Q: Name the outcome recorded for CCCCC1C(=O)N(c2ccccc2)N(c2ccc(O)cc2)C1=O (stereo unspecified) in the assay.
Result: yes

Q: Assay outcome for O=C(/C=C/c1ccccc1)OCCCc1ccccc1 : what was it?
Result: no

---

Examples of compounds with documented max response follow.
# experimental protocol: qHTS RealTime-Glo MT Cell Viability Assay in HEK293 cells - 40 hour (AID 1224874); note: % is set by controls: 0 for no effect and ±100 for the full control effect; nearly all actives have a fitted effect of over 50% in size
# assay setup: RealTime-Glo luminescence; active compounds read low
Inconclusive results are not listed.
Could you give me the number in %? Just the number is fine.

1) Cc1cc(S(=O)(=O)O)ccc1N=Nc1c(O)ccc2ccccc12	-12.7
2) CCCCCCCCCCCC[N+](C)(C)CC(=O)[O-]	-3.41
3) Nc1c(I)cc(I)c(C(=O)N(CCC(=O)O)c2ccccc2)c1I	-10.8
4) O=C(C(=O)c1ccccc1)c1ccccc1	3.7
5) C[N+](C)(C)CCOC(N)=O	0.438

Q: Entry CC1=C(/C=C/C(C)=C\C=C\C(C)=C\C(=O)O)C(C)(C)CCC1 needs its max response filled in; supply it.
Result: -21.3

---

# experimental protocol: qHTS assay to identify small molecule agonists of the constitutive androstane receptor (CAR) signaling pathway - cell viability counter screen (AID 1224836); note: % is set by controls: 0 for no effect and ±100 for the full control effect; nearly all actives have a fitted effect of over 45% in size
# assay setup: HepG2-CYP2B6-hCAR viability, CellTiter-Fluor, 23 h, PK11195 added to every well; series mostly up to 92.4 µM
Results filed as inconclusive are left out. Activity calls are given as the source filed them. Calls follow the shape of the dose curve; as a rule, active = well fitted cell-killing curve with a large enough effect in the repeat runs; inconclusive = weak or mixed curves, or effect the other way; inactive = flat fitted curve, though single readings scatter.
Give your call using only these classes: y = active, n = inactive

1) CC(C)c1nnc2ccc(-c3ocnc3-c3cc(F)ccc3F)cn12	n
2) O=C(O)c1ccccc1NCCc1ccccc1	n
3) CN(C)C(=O)Nc1ccc(Oc2ccc(Cl)cc2)cc1	n
4) CC(=O)Nc1ccc(N)cc1	n

Moving on to another compound below.
Q: # lookup: test call for CN1CCCN=C1/C=C/c1cccs1
Result: n

---

# experimental protocol: qHTS assay to identify small molecule antagonists of the estrogen receptor alpha (ER-alpha) signaling pathway using the BG1 cell line - cell viability counter screen (AID 743081);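 note: compound given together with 17beta-estradiol as the ER stimulus; % is set by controls: 0 for no effect and ±100 for the full control effect; nearly all actives have a fitted effect of over 45% in size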
# assay setup: BG1Luc4E2 viability, CellTiter-Fluor, 22 h; series mostly up to 70.3 µM
Inconclusive results are not listed. Activity calls are given as the source filed them. The call rests on the fitted dose curve; in most records, active means well fitted cell-killing curve with a large enough effect in the repeat runs; inconclusive means weak or mixed curves, or effect the other way; inactive means flat fitted curve, though single readings scatter.
Lab note: assign the record to one of active, inactive

1) CC(C)(CCl)c1ccccc1	inactive
2) Cc1cc(OI)c(C(C)C)cc1-c1cc(C(C)C)c(OI)cc1C	inactive
3) O=C(CCCN1CCC(O)(c2ccc(Br)cc2)CC1)c1ccc(F)cc1	inactive

Q: Please share the test call associated with CC1=CC(O)CC(C)(C)C1 (stereo unspecified) .
Result: inactive

Q: Kindly provide the recorded test outcome for the following compound: O=C(CCCCCCCCC#CI)Oc1ccccc1
Result: inactive

Q: Lab log entry: COC(OC)(C(=O)c1ccccc1)c1ccccc1 — outcome as called in the assay?
Result: inactive

Q: Which outcome was assigned to CC(=O)Nc1ccccc1C in this test?
Result: inactive

Q: Per the records of this test, what outcome belongs to O=Cc1c(Cl)cccc1Cl ?
Result: inactive

Q: Outcome? Fc1c(F)c(F)c(Br)c(F)c1F
Result: inactive

Q: State the result this test recorded for CC(N)CN (stereo unspecified) .
Result: inactive

Q: For CC1=NN(c2ccc(C(=O)O)cc2)C(=O)C1 , what call appears in the results of this test?
Result: inactive

Q: Any idea what this test logged for CCCCC(CC)CNCC(CC)CCCC (stereo unspecified) ?
Result: inactive

Q: Dear all, I need the recorded test outcome for O=C(O)c1ccc(CO)o1 , thank you.
Result: inactive

Q: Would you mind telling me which call this test gave CCCCOC(=O)CCS ?
Result: inactive

Q: Answer briefly: the call reported for O=C(c1ccc(O)cc1)c1ccc(Cl)cc1 in this assay.
Result: inactive

Q: Recorded test outcome, item CCC(C(=O)OCCOCCN(CC)CC)c1ccccc1 (stereo unspecified)
Result: inactive

---

# experimental protocol: qHTS assay to identify small molecule agonists of the hypoxia (HIF-1) signaling pathway (AID 1224846); note: % is set by controls: 0 for no effect and ±100 for the full control effect
# assay setup: HRE-bla ME-180 cells, beta-lactamase ratio, 17 h; series mostly up to 76.8 µM
# Method: U.S. Tox21 Program National Center for Advancing Translational Sciences [NCATS] NIH Chemical Genomics Center [NCGC] U.S. Environmental Protection Agency [EPA] National Institutes of Environmental Health Sciences [NIEHS] National Toxicology Program [NTP] U.S. Food and Drug Administration [FDA] […] Tox21 10K library compounds were measured for their ability to induce the reporter gene activity. […]
Inconclusive results are not listed. Active and inactive are the calls of the source. Calls follow the shape of the dose curve; as a rule, active = well fitted activation curve with a large enough effect in the signal ratio in the repeat runs (not every such curve was filed as active); inconclusive = weak or mixed curves; inactive = flat fitted curve, though single readings scatter; the % refers to the signal ratio.
measured metric: activation

As a guide, the following entries are already answered.
1) CCCCC(CC)CNCC(CC)CCCC (centres undefined)	inactive
2) CC(CCO)CCc1ccccc1 (centres undefined)	inactive
3) O=C(CCC1CCN(Cc2ccccc2)CC1)c1ccc2c(c1)NCCCC2	inactive
4) Cc1cc(O)c2c(O)c3c(O)cccc3cc2c1	inactive
5) CCOC(=O)/C=C/C(=O)O	inactive
6) C=C(C)C(=O)OCCOC(=O)CC(C)=O	inactive
7) COc1cc2[nH]c(=O)[nH]c(=O)c2cc1OC	inactive
8) CCCCC(CC)COC(=O)COc1ccc(Cl)cc1C (centres undefined)	inactive

Let us move to another entry and its activation.
Q: Please list activation recorded for the compound Cc1ccc(S)cc1
Result: inactive

---

# experimental protocol: qHTS assay for small molecules that induce genotoxicity in human embryonic kidney cells expressing luciferase-tagged ATAD5 - cell viability (AID 651634); note: nearly all actives have a fitted effect of over 25% in size
# assay setup: HEK293T ATAD5-luc cells viability, CellTiter-Fluor, 15.5 h; series mostly up to 83.3 µM
Records with an inconclusive call do not appear. Active and inactive are the calls of the source. Calls follow the shape of the full dose curve.
Respond only with the outcome that fits, drawn from active, inactive

1) C=CCOC(=O)/C=C\C(=O)OCC=C	inactive
2) O=C(O)c1cccc(O)c1	inactive
3) CC#N	inactive
4) CC(=O)[C@H]1CC[C@H]2[C@@H]3C[C@H](C)C4=CC(=O)CC[C@]4(C)[C@H]3[C@@H](O)C[C@]12C	inactive

Q: Call for entry CCn1cc(C(=O)O)c(=O)c2cc(F)c(N3CCNCC3)nc21 :
Result: inactive

Q: Record request — test call for CCCCCCCCCCCCCCC[C@H](O)[C@@H](N)CO
Result: inactive

Q: Which outcome did this test record for the molecule CC(C)(C)CC(C)(C)c1ccc(OCCO)cc1 ?
Result: active

---

# experimental protocol: qHTS assay for identifying genotoxic compounds that show differential cytotoxicity against isogenic chicken DT40 cell lines with known DNA damage response pathways - Rad54/Ku70 mutant cell line (AID 743015); note: nearly all actives have a fitted effect of over 60% in size
# assay setup: DT40 Rad54/Ku70 mutant viability, CellTiter-Glo, 40 h; series mostly up to 66.8 µM
Records with an inconclusive call do not appear. The source made the active and inactive calls. Calls come from the whole dose curve; as a rule, active = well fitted cell-killing curve with a large enough effect in the repeat runs; inconclusive = weak or mixed curves; inactive = no such curve, though single readings can be large or run the other way.
Can you answer with just one of these options? yes (1) for active, no (0) for inactive

Illustrative cases are given below, each with its answer.
1. O=C(N/N=C/c1ccc([N+](=O)[O-])o1)c1ccc(O)cc1	yes (1)
2. CC1(C)C2=CCCC(C)(C)[C@]23CC[C@H]1C3	yes (1)
3. CC(=O)Nc1ccccc1C	no (0)
4. COc1cc2c(N3CCN(C(=O)Nc4ccc(OC(C)C)cc4)CC3)ncnc2cc1OCCCN1CCCCC1	yes (1)
5. OC(CCCN1CCCCC1)(c1ccccc1)c1ccccc1	yes (1)

Q: Check the results log: what was the call for ON(Cc1ccccc1)Cc1ccccc1 ?
Result: no (0)

Q: // return assay outcome for CC1CC(O)CC(C)(C)C1 (stereo not drawn)
Result: no (0)

Q: Assay result, entry CO[C@H]1O[C@H](CO)[C@@H](O)[C@H](O)[C@H]1O — outcome?
Result: no (0)

---

# experimental protocol: qHTS assay to identify small molecule agonists of the estrogen receptor alpha (ER-alpha) signaling pathway in the presence of an antagonist - cell viability counter screen (AID 1259386);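 note: cells exposed to compounds for 22 h at 37 °C before the viability read; nearly all actives have a fitted effect of over 30% in size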
# assay setup: VM7Luc4E2 viability, CellTiter-Fluor fluorescence, 22 h; series mostly up to 92.4 µM
Results filed as inconclusive are left out. Activity calls are given as the source filed them. Calls follow the shape of the dose curve; as a rule, active = well fitted cell-killing curve with a large enough effect in the repeat runs; inconclusive = weak or mixed curves, or effect the other way; inactive = no such curve, though single readings can be large or run the other way.
Choose the fitting class; nothing outside Yes (active), No (inactive) is accepted.

Please review the entries below; each comes with its answer.
1) C[N+](C)(C)CCOC(N)=O	No
2) CCCOC(=O)c1ccc(N)cc1	No
3) CCCCC(=O)O[C@]1(C(=O)CO)CC[C@H]2[C@@H]3CCC4=CC(=O)CC[C@]4(C)[C@H]3[C@@H](O)C[C@@]21C	No
4) CN(C(=O)C(Cl)Cl)c1ccc(OC(=O)c2ccco2)cc1	No
5) Brc1cc(-c2ccc(Br)c(Br)c2Br)cc(Br)c1Br	No
6) O=C(O)c1cccnc1C(=O)O	No
7) O=C(CCCCCCCCC#CI)Oc1ccccc1	No
8) CC(Cl)C(Cl)Cl (centres undefined)	No
9) CC1CC(O)CC(C)(C)C1 (centres undefined)	No
10) Nc1c(I)cc(I)c(C(=O)N(CCC(=O)O)c2ccccc2)c1I	No

Q: Fill in: this test's call for Cc1cc(S(=O)(=O)O)ccc1N=Nc1c(O)ccc2ccccc12 is ___
Result: Yes

Q: Can you look up the reported call for CC(C)CCCCCCOC(=O)CCCCC(=O)OCCCCCCC(C)C for me?
Result: No

Q: Tell me the assay call for CCC(C(=O)OCCOCCN(CC)CC)c1ccccc1 (centres undefined) please.
Result: No

Just for reference, PubChem BioAssay (Tox21) is where these values come from.
